Entries with reported pIC50 on Dihydroorotate dehydrogenase (Plasmodium falciparum, UniProt Q54A96)
Sequence (Q54A96 whole entry): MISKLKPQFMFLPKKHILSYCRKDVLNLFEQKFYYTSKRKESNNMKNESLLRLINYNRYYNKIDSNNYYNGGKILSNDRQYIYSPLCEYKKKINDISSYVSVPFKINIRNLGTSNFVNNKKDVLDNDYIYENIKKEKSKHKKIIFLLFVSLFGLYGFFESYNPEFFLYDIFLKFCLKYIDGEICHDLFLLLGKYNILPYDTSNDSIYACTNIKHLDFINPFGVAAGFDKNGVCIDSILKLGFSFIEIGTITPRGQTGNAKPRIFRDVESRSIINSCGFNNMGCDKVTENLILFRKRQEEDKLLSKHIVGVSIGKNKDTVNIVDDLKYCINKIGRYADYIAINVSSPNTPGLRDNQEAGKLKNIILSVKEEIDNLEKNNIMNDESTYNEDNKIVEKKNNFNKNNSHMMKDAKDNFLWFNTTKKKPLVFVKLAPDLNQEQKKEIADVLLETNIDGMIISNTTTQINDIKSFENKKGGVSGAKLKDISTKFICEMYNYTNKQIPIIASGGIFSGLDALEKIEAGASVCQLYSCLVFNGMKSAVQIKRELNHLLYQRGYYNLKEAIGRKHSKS
Give only the number. pIC50 is defined as minus log10 of concentration in molar units.

Cc1nc(Nc2cnc3ccccc3c2)c2nc[nH]c2n1 : 4.57
Cc1nc(Nc2ccc3ccccc3c2)c2nc[nH]c2n1 : 6.36
Cc1cc(Nc2ccc(C(F)(F)F)cc2)n2ccnc2n1 : 7.11
Cc1cc(Nc2ccc3ccccc3c2)n2ccnc2n1 : 6.82
Cc1cc(Nc2ccc3ccccc3c2)n2ncnc2c1 : 5.32

What value of pIC50 has been recorded for this entry: `Cc1cc(Nc2ccc3ccccc3c2)n2nccc2n1`
6.40

What value of pIC50 has been recorded for this entry: `Cc1nc(Nc2ccc3cc4ccccc4cc3c2)c2nc[nH]c2n1`
5.32
